Tested on: BT474 (breast cancer) cells
Assay: In vitro cell assay (MTS cell viability), BT474
Assay type: cell-based
Conditions: Homo sapiens, BT-474; free compounds (natural products and synthetic analogs); cell viability 96 hours after treatment
For each record, write down the corresponding IC50.
Form entry: value (nM) — number only.

What value of IC50 has been recorded for this entry: CC(=O)O[C@@H](C)/C=C\C(=O)N[C@@H]1C[C@H](C)[C@H](C/C=C(C)/C=C/[C@@H]2C[C@]3(CO3)C[C@@H](CC(=O)NC(C)(C)C(=O)O)O2)O[C@@H]1C
0.723

Please answer likewise for CC(/C=C/[C@@H]1C[C@]2(CO2)C[C@@H](CC(N)=O)O1)=C\C[C@@H]1O[C@H](C)[C@H](NC(=O)/C=C\[C@H](C)OC(=O)N2CCN(C)CC2)C[C@@H]1C
1.8

Please answer likewise for CC(=O)O[C@@H](C)/C=C\C(=O)N[C@@H]1C[C@H](C)[C@H](C/C=C(C)/C=C/[C@@H]2C[C@]3(CO3)C[C@@H](CC(=O)NN)O2)O[C@@H]1C
1.12
